- assayed.system: MarE (Streptomyces maremycinicus, UniProt Z9UO16L6N2, H57F, form not given)
- assay.info: isothermal titration calorimetry, one-site model
- protocol.conditions: 0.1 mM sodium cyanide, 50 mM HEPES, 50 mM NaCl, 5% glycerol, pH 7.5, 22 °C
quantity.kind: Kd (µM)

compound="C[C@@H](c1c[nH]c2ccccc12)[C@H](N)C(=O)O [(2S,3S)-β-methyl-L-tryptophan]" quantity_kind=Kd numeric_result=98.6

----------
- assayed.system: MarE (Streptomyces maremycinicus, UniProt Z9UO16L6N2, R120A, form not given)
- assay.info: isothermal titration calorimetry, one-site model
- protocol.conditions: 0.1 mM sodium cyanide, 50 mM HEPES, 50 mM NaCl, 5% glycerol, pH 7.5, 22 °C
pKd: −log10 of the molar value.
quantity.kind: pKd

query_smiles=C[C@@H](c1c[nH]c2ccccc12)[C@H](N)C(=O)O numeric_result=4.27
